Data provenance is patent US20230158155A1.

biological target: recombinant human CI-M6PR protein (Homo sapiens); construct: purchased R&D 6418-GR-050; test: Human CI-M6PR binding assay (ELISA); details: additional M6PR binding assays; antibody conjugate, average loading DAR 4; read-out: EC50 (nM) in M6PR binding assay
REPORTED ENDPOINT: EC50

Please give the measured EC50 for this compound: O=C(CCOCCOCCOCCOCCn1cc(CCCCNC(=S)Nc2ccc(O[C@H]3O[C@H](CCP(=O)(O)O)[C@@H](O)[C@H](O)[C@@H]3O)cc2)nn1)Oc1c(F)c(F)c(F)c(F)c1F [520 (I-7)]
0.412 nM

---

molecular target: recombinant human CI-M6PR protein (Homo sapiens, UniProt P11717); construct: purchased R&D 6418-GR-050; assay: Human CI-M6PR binding assay (ELISA); settings: antibody conjugate, average loading DAR 10; FIG. 23; read-out: EC50 (nM) in M6PR binding assay
REPORTED ENDPOINT: EC50 (nM)
Note: unit nM is implicit; provide only the numeric part.

Please give the measured EC50 for this compound: O=C(CCOCCOCCOCCOCCOCCOCCOCCOCCn1cc(CCCCNC(=S)Nc2ccc(O[C@H]3O[C@H](CCP(=O)(O)O)[C@@H](O)[C@H](O)[C@@H]3O)cc2)nn1)Oc1c(F)c(F)c(F)c(F)c1F [526 (I-48)]
0.186

---

molecular target: recombinant human CI-M6PR protein (Homo sapiens, UniProt P11717); construct: purchased R&D 6418-GR-050; test: Human CI-M6PR binding assay (ELISA); conditions: antibody conjugate, average loading DAR 9.5; FIG. 23; read-out: EC50 (nM) in M6PR binding assay
For each record, write down the corresponding EC50.

Please give the measured EC50 for this molecule: O=C(NCCCCc1cn(CCOCCOCCOCCOCCC(=O)Oc2c(F)c(F)c(F)c(F)c2F)nn1)Nc1ccc(O[C@H]2O[C@H](CCP(=O)(O)O)[C@@H](O)[C@H](O)[C@@H]2O)cc1
0.194 nM

Okay, and O=C(CCOCCn1cc(CCCCNC(=S)Nc2ccc(O[C@H]3O[C@H](CCP(=O)(O)O)[C@@H](O)[C@H](O)[C@@H]3O)cc2)nn1)Oc1c(F)c(F)c(F)c(F)c1F ?
0.266 nM

---

target: recombinant human CI-M6PR protein (Homo sapiens, UniProt P11717); construct: purchased R&D 6418-GR-050; test: Human CI-M6PR binding assay (ELISA); conditions: additional M6PR binding assays; antibody conjugate, average loading DAR 8; read-out: EC50 (nM) in M6PR binding assay
REPORTED ENDPOINT: EC50 (nM)
Note: unit nM is implicit; provide only the numeric part.

Please give the measured EC50 for this compound: O=C(CCOCCOCCOCCOCCn1cc(CCCCNC(=S)Nc2ccc(O[C@H]3O[C@H](CC(C(=O)O)C(=O)O)[C@@H](O)[C@H](O)[C@@H]3O)cc2)nn1)Oc1c(F)c(F)c(F)c(F)c1F
2.31

---

target: recombinant human CI-M6PR protein (Homo sapiens, UniProt P11717); construct: purchased R&D 6418-GR-050; experiment: Human CI-M6PR binding assay (ELISA); details: antibody conjugate, average loading DAR 4; FIG. 23; read-out: EC50 (nM) in M6PR binding assay
REPORTED ENDPOINT: EC50
Respond with a number, then the unit of measure.

Please give the measured EC50 for this molecule: O=C(CCOCCOCCOCCOCCn1cc(CCCCNC(=S)Nc2ccc(O[C@H]3O[C@H](CCP(=O)(O)O)[C@@H](O)[C@H](O)[C@@H]3O)cc2)nn1)Oc1c(F)c(F)c(F)c(F)c1F
0.221 nM

---

For each record, write down the corresponding EC50.
Target: recombinant human CI-M6PR protein (Homo sapiens)
Construct: purchased R&D 6418-GR-050
Experiment: Human CI-M6PR binding assay (ELISA)
Settings: antibody conjugate, average loading DAR 9; FIG. 23; read-out: EC50 (nM) in M6PR binding assay
Protocol: Nunc black solid bottom MaxiSorp plates were allowed to incubate overnight at 4° C. coated with […] of recombinant human CI-M6PR protein (R&D, 6418-GR-050) in 50 μL PBS. The next day, coating was decanted and plates were washed 3× with PBS. Wells were blocked with 350 μL of 3% BSA-PBS for 1 hour at room temperature. […] After incubation, plates were read on a Perkin Elmer EnVision using photometric 340 and Umbelliferone 460 filter sets for excitation and emission, respectively. […]
Note: unit nM is implicit; provide only the numeric part.

Please give the measured EC50 for this compound: O=C(CCOCCOCCOCCOCCn1cc(CCCCNC(=S)Nc2ccc(O[C@H]3O[C@H](CC(C(=O)O)C(=O)O)[C@@H](O)[C@H](O)[C@@H]3O)cc2)nn1)Oc1c(F)c(F)c(F)c(F)c1F
3.36

Okay, and O=C(CCOCCOCCOCCOCCn1cc(CCCCNC(=S)Nc2ccc(O[C@H]3O[C@H](CCP(=O)(O)O)[C@@H](O)[C@H](O)[C@@H]3O)cc2)nn1)Oc1c(F)c(F)c(F)c(F)c1F ?
0.217

Okay, and O=C(CCCCCc1cn(CCOCCOCCOCCOCCC(=O)Oc2c(F)c(F)c(F)c(F)c2F)nn1)Nc1ccc(O[C@H]2O[C@H](CCP(=O)(O)O)[C@@H](O)[C@H](O)[C@@H]2O)cc1 ?
0.186
